- protocol.description: melting temperature; melt of duplexes
- measurement.conditions: sodium 0.0675 M; strand 1 µM
measurement.kind: Tm (°C)
Respond with the bare value in °C.

substance	Tm [°C]
CGACGTGCCCTATGTGCTG+CAGCACATTAAGCACGTCG ((((((((...((((((((+))))))))...))))))))	48.7
CGACGTGCCGGATGTGCTG+CAGCACATCTAGCACGTCG ((((((((..(((((((((+)))))))))..))))))))	55
CGACGTGCAAGATGTGCTG+CAGCACATGTTGCACGTCG ((((((((((.((((((((+)))))))).))))))))))	57.8

Here's the next entry for you.
Prompt line: Recorded Tm for CGACGTGCGGGATGTGCTG+CAGCACATGCTGCACGTCG ((((((((.(.((((((((+)))))))).).)))))))) , please?
Response line: 56.9
